Listed here: items and their measured IC50.
molecular target: CCKB receptor (Cavia porcellus); assay: 125I-CCK-8 receptor binding assay, CCKB (guinea pig cerebral cortex); settings: IC50 CCKB, Table 3
Sequence (H0VZC5 1-426): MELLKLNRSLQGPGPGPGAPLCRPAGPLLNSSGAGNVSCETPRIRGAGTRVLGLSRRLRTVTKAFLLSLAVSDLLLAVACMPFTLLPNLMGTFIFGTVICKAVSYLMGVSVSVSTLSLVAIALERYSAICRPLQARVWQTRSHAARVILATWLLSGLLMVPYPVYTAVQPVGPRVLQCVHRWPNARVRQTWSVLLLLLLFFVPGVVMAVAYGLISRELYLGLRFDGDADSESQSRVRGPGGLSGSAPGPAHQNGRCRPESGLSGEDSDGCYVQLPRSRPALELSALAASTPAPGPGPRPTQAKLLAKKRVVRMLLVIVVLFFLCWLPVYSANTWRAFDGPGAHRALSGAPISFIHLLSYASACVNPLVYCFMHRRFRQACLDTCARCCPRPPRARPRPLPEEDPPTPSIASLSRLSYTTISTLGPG
Give a bare numeral; the unit µM is implied.

Let me check: CN(c1ccccc1)C1N=C(c2ccccc2)c2cc(Cl)ccc2NC1=O (stereo not drawn) , system CCKB receptor (Cavia porcellus), measured IC50 is 0.15

// IC50 (CCKB receptor (Cavia porcellus)) for Cc1cc(C)cc(NC2N=C(c3ccccc3)c3cc(Cl)ccc3NC2=O)c1 (stereo not drawn) = 2.9

Reported CCKB receptor (Cavia porcellus) IC50 for item O=C1Nc2ccc(Cl)cc2C(c2ccccc2)=NC1Nc1ccccc1 (stereo not drawn) was 4.1

Response field IC50 (CCKB receptor (Cavia porcellus)) for item Cc1ccc(NC2N=C(c3ccccc3)c3cc(Cl)ccc3NC2=O)cc1 (stereo not drawn) : 4.6

Noted IC50 for O=C1Nc2ccc(Cl)cc2C(c2ccccc2)=NC1Nc1ccccc1Cl (stereo not drawn) , tested on CCKB receptor (Cavia porcellus): 9.3

# IC50 measured on CCKB receptor (Cavia porcellus) for item O=C1Nc2ccc(Cl)cc2C(c2ccccc2)=NC1Nc1cccc([N+](=O)[O-])c1 (stereo not drawn) = 6

Value (IC50, CCKB receptor (Cavia porcellus)) for record COc1ccccc1NC1N=C(c2ccccc2)c2cc(Cl)ccc2NC1=O (stereo not drawn) = 1.5

Given the compound Cc1ccc(NC2N=C(c3ccccc3)c3cc(Cl)ccc3NC2=O)cc1C (stereo not drawn) and test system CCKB receptor (Cavia porcellus), the measured IC50 is 0.92

Tested on CCKB receptor (Cavia porcellus): CCN(c1cccc(C)c1)C1N=C(c2ccccc2)c2cc(Cl)ccc2NC1=O (stereo not drawn) . Observed IC50: 0.65

Query O=C1Nc2ccc(Cl)cc2C(c2ccccc2)=NC1Nc1cccc(Cl)c1 (stereo not drawn) on CCKB receptor (Cavia porcellus); IC50 returned: 6.2
